- testedSystem: MAT2A enzyme (Homo sapiens, UniProt P31153)
- Sequence (P31153 whole entry): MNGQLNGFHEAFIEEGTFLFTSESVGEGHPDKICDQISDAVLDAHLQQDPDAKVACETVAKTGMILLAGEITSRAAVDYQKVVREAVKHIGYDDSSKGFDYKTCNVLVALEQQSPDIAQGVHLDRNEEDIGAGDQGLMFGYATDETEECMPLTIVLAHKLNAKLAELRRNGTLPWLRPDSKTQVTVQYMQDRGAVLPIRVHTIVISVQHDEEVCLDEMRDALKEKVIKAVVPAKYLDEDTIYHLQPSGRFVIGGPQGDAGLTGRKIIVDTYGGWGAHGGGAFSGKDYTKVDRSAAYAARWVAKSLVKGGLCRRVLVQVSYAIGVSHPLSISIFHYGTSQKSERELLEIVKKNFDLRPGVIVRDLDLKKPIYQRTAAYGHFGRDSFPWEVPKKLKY
- procedureSummary: Enzymatic testing method for MAT2A (Biomol Green, OD620)
- experimentalConditions: score by IC50 for inhibiting MAT2A; read-out: MAT2A inhibition score
Where a name gives a salt, the structure may show the parent alone.
Recorded measurements of IC50, one per entry

Sample answers from the record:
Nc1nc2ccc(-c3cn4ccc(NCC(F)(F)F)nc4c(-c4ccc(OC(F)F)cc4)c3=O)cc2s1 ... < 50 nM
Cc1cn2cc(-c3ccc(OC(F)F)cc3)c(=O)c(-c3ccc(OC(F)F)cc3)c2nc1NCC(F)(F)F ... < 50 nM
O=c1c(-c2ccc(OC(F)F)cc2)cn2ccc(C3CC3)nc2c1-c1ccc2c(c1)OC(F)(F)O2 ... 50 to 200 nM
Cn1cc2cc(-c3cn4ccc(C5CC5)nc4c(-c4ccc(OC(F)F)cc4)c3=O)ccc2n1 ... < 50 nM

Turning now to a further record.
Query block: Tell me its IC50 on MAT2A enzyme (Homo sapiens, UniProt P31153): Cn1nc2ccc(-c3cn4ccc(C5CC5)cc4c(-c4ccc5c(c4)OC(F)(F)O5)c3=O)cc2c1N [Example 6, hydrochloride]
Result block: < 50 nM

###

- testedSystem: MAT2A enzyme (Homo sapiens)
- Construct: purchased BPS 71401
- procedureSummary: Enzymatic testing method for MAT2A (Biomol Green, OD620)
- Assay type: biochemical
- experimentalConditions: score by IC50 for inhibiting MAT2A; read-out: MAT2A inhibition score
pIC50: −log10 of the molar value.
reportedMetric: pIC50

Sample answers from the record:
O=c1c(-c2ccc3c(c2)OC(F)(F)O3)cn2ccc(C3CC3)nc2c1-c1ccc2c(c1)OC(F)(F)O2 [Example 30] ... < 6.00
COc1ccc(-c2cn3ccc(C4CC4)nc3c(-c3ccc(OC)c(OC)c3)c2=O)cc1OC [Example 31] ... < 6.00
O=C1NC2(CC2)Cn2nc3ccc(-c4cn5ccc(C6CC6)nc5c(-c5ccc(OC(F)F)cc5)c4=O)cc3c21 [Example 35] ... > 7.30
Cn1nccc1-c1c2cc(-c3cn4ccc(C5CC5)cc4c(-c4ccc5nn(C)c(-c6ccnn6C)c5c4)c3=O)ccc2nn1C [Example 8] ... < 6.00
Cn1cc2cc(-c3cn4ccc(C5CC5)nc4c(-c4ccc5nn(C)cc5c4)c3=O)ccc2n1 [Example 29] ... < 6.00

Query block: Quick one: give measured pIC50 for O=C1NC2(CC2)Cn2nc3ccc(-c4cn5ccc(NCC(F)(F)F)nc5c(-c5ccc(OC(F)F)cc5)c4=O)cc3c21 [Example 14]
Result block: > 7.30

Query block: Quick one: give measured pIC50 for O=C1Cn2nc3ccc(-c4cn5ccc(NCC(F)(F)F)nc5c(-c5ccc(OC(F)F)cc5)c4=O)cc3c2C2(CC2)N1 [Example 16]
Result block: > 7.30

The origin of these recorded values is patent US20240287063A1.
